# System: SR
# ASSAY PROCEDURE: NCI tumour cell line growth inhibition, 48 h
The source made the active and inactive calls. Rule as the data show it: active = GI50 up to about 1.1 µM and inactive = higher.
Labels: YES (active), NO (inactive)

{"columns": ["MOLECULE", "CLASS LABEL"],
 "data": [
  ["C/C=C/c1cc(=O)c([C@@H]2OC(=O)c3cc(OC)cc(OC)c32)co1", "NO"],
  ["Cc1ccc(Oc2ccc(C)cc2[N+](=O)[O-])cc1", "NO"],
  ["O=c1ccn(C2OC(CO)C(P(=O)(O)O)C2O)c(=O)[nH]1 (configuration not stated)", "NO"],
  ["CCCC(=O)Nc1cc(C(=O)N2C[C@H]3C[C@@]34C2=CC(=O)c2[nH]cc(C)c24)n(COC)c1", "YES"],
  ["COC1(OC)CCC2(C)OC(c3ccccc3)C1O2 (configuration not stated)", "NO"],
  ["CC(C)(C)N(Cc1ccc2c(c1)OCO2)C(=O)/C=C\\[S+]([O-])c1ccccc1 (configuration not stated)", "NO"],
  ["c1ccc(C(=NNc2cnc3ccccc3n2)c2ccccn2)cc1", "YES"],
  ["NC1=NC(=O)/C(=C/c2ccccc2[N+](=O)[O-])C(N)=N1", "NO"],
  ["Cc1cc(Cl)ccc1NC(=O)/C(Cl)=C(/Cl)C(=O)O", "NO"],
  ["CCOC(=O)CCC(=O)C1c2cccc(O)c2C(=O)c2c(O)cc(C)cc21 (configuration not stated)", "YES"],
  ["O=C1CSC(c2c[nH]c3ccccc23)N1c1ccccc1[N+](=O)[O-] (configuration not stated)", "NO"],
  ["CC(=O)c1sc2n(C)c(=O)c3ccccc3[n+]2c1C", "NO"],
  ["CC(=O)OCC1OC(O[C@H]2C=C[C@@H](C(=O)OCc3ccccc3)n3c(=O)n(-c4ccccc4)c(=O)n32)C(OC(C)=O)C(OC(C)=O)C1OC(C)=O (some centres not stated)", "NO"],
  ["COc1ccc2cc(C(C)C(=O)N3C(=O)OCC3(C)C)ccc2c1 (configuration not stated)", "NO"],
  ["CSc1ccc2c(c1)c(CCN)c(C)n2Cc1ccccc1Cl", "NO"],
  ["Cc1cc2c(c(S(=O)(=O)c3ccccc3[N+](=O)[O-])c1)NCCC2", "NO"],
  ["CCOC(=O)/C(=C\\c1ccc(OCc2ccccc2)c(OC)c1)C(=O)c1ccccc1", "NO"],
  ["Cc1cccc(NC(=O)CC(=O)N2N=C(N(CCC#N)c3ccc(Cl)cc3)CC2c2ccccc2)c1 (configuration not stated)", "NO"],
  ["COc1c(CC=C(C)C)c(O)c(C(CC(C)C)c2c(O)c(CC=C(C)C)c(O)c(C(C)=O)c2O)c(O)c1C(C)=O (configuration not stated)", "YES"],
  ["CC1(C)OC(C(N)=O)=C(C(N)=O)O1", "NO"],
  ["CCCCCCCCCCCCCCCCNc1ccc2c(c1)OCCOCCOCCOCCO2", "NO"],
  ["COc1cc(C2c3cc4c(cc3OC(NCCO)C2C)OCO4)cc(OC)c1OC (configuration not stated)", "YES"],
  ["CC(=O)Nc1ccc(-c2nnc(SCC(=O)Nc3ccccc3)o2)cc1", "NO"],
  ["CC(=O)C(CN(C(C)C)C(C)C)C(c1ccccc1)c1c(O)c2ccccc2oc1=O (configuration not stated)", "NO"],
  ["CCN(CC)CCn1ncc2c3c(=O)c4cccnc4n(CCN(CC)CC)c3ccc21", "NO"],
  ["Cc1ccc(NC(=O)/C=C/c2ccccc2)c(C)c1", "NO"],
  ["CC(C)N(C(C)C)S(=O)(=O)CC12CCC(C/C1=N\\O)C2 (configuration not stated)", "NO"],
  ["COC(=O)[C@]1(C)CCCC2(C)C1CC[C@H]1C=C(C)[C@H]3CCC12C3 (some centres not stated)", "NO"],
  ["O=C1C(Cl)=C(OCCCl)C(=O)c2c(O)ccc(O)c21", "YES"],
  ["CC[C@]1(Cc2ccc(OC)c(OC)c2)C=[N+]([O-])O[C@H](OCc2ccccc2)[C@@H]1OC(C)=O", "NO"],
  ["CC(C)(C)c1ccc(CN2CCN(C(c3ccccc3)c3ccc(Cl)cc3)CC2)cc1 (configuration not stated)", "NO"],
  ["Cc1ccc2nc(N/N=C/c3ccc(C)s3)cc(C)c2c1", "NO"],
  ["COc1ccc2cccc(C(=O)c3ccc(C)c4c3CCC4)c2c1", "NO"],
  ["OC1C[C@H](c2ccccc2)C2(C(O)c3ccccc3C2O)[C@@H](c2ccccc2)C1 (some centres not stated)", "NO"],
  ["CCOC(=O)C1=C(C)NC(=S)NC1c1ccccc1 (configuration not stated)", "NO"],
  ["COc1ccc(C2=C(Cl)c3cc(OC)c(OC)cc3C2)cc1OC", "NO"],
  ["COC(=O)C1=CC2C=CC(C1C(=O)OC)C1C(C(=O)OC)=C(C(=O)OC)C(C(=O)OC)=C(C(=O)OC)C21OC (configuration not stated)", "NO"],
  ["O=C1CC(=O)c2c(N3CCCC3)sc(N3CCCC3)c21", "NO"],
  ["CC(=O)OCc1c2ccccc2c(C)c2c1cc(F)c1ccccc12", "NO"],
  ["CC1=CC(=O)N(n2c(C)n[nH]c2=O)C1=O", "NO"],
  ["N#C/C(=C/NC(=S)NCc1ccccc1)C(N)=O", "NO"],
  ["Oc1ccc(O)c(CNc2ccccc2)c1", "NO"]
]}
